- TARGET: KDR kinase (Homo sapiens)
- Construct: purchased Millipore (KinaseProfiler Service)
- Sequence (P35968 20-1356): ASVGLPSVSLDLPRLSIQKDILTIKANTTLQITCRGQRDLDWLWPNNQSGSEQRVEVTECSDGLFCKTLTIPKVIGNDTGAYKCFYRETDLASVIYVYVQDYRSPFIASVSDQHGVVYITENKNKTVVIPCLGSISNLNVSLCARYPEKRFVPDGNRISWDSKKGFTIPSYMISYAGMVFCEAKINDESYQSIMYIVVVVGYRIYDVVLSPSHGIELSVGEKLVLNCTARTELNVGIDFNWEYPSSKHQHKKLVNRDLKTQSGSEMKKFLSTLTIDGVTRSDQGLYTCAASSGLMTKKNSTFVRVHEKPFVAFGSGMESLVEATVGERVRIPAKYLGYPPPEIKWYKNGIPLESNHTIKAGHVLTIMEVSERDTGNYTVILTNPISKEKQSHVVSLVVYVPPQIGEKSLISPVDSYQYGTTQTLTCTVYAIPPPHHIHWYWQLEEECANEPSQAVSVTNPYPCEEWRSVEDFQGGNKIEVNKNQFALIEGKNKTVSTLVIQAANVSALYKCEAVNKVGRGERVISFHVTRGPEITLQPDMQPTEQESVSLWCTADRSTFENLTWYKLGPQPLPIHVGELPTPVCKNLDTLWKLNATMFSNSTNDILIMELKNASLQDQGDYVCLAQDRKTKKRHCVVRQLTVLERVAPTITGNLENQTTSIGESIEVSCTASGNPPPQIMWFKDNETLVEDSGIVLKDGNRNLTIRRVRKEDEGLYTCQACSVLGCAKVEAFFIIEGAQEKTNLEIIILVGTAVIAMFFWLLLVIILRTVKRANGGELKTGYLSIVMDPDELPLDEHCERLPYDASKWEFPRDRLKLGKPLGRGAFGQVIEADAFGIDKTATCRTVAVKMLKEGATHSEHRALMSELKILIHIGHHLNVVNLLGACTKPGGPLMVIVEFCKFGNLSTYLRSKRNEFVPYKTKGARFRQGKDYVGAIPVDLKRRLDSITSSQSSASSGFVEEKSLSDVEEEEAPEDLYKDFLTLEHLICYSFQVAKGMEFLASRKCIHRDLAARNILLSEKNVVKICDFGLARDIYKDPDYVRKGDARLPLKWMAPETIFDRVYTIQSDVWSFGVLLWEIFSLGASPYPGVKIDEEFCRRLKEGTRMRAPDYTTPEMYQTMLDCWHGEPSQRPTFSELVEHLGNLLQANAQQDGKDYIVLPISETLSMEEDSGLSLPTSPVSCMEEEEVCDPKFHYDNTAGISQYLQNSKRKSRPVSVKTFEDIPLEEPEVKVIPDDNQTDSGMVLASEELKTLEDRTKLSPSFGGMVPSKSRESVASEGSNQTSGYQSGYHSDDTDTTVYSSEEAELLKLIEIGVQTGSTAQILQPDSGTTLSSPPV
- EXPERIMENT NOTES: KinaseProfiler kinase inhibition assay, KDR
- Type: biochemical
- MEASUREMENT CONDITIONS: 1 μM compound
MEASURED PROPERTY: inhibition at 1 µM (%)

[[record]]
smiles_record = "CCN1CCN(c2ccc(Nc3cc(Oc4ccc5[nH]c(C)cc5c4F)ncn3)cc2)CC1"
reported_measurement = 97

[[record]]
smiles_record = "COc1cc(CCc2cc(Nc3cc(Oc4ccc5[nH]c(C)cc5c4F)ncn3)n[nH]2)cc(OC)c1"
reported_measurement = 96

[[record]]
smiles_record = "Cc1cc2c(F)c(Oc3cc(Nc4ccc(N5CCN(C)CC5)c(F)c4)ncn3)ccc2[nH]1"
reported_measurement = 97

[[record]]
smiles_record = "CCN1CCN(c2ccc(Nc3ncnc(Oc4ccc5c(cc(C)n5C)c4F)c3C#N)cc2)CC1"
reported_measurement = 8

[[record]]
smiles_record = "Cc1cc2c(F)c(Oc3ncnc(Nc4ccc(N5CCN(C)CC5)cn4)c3C)ccc2[nH]1"
reported_measurement = 5

[[record]]
smiles_record = "CC(=O)N1CCN(c2ccc(Nc3ncnc(Oc4ccc5[nH]c(C)cc5c4F)c3F)cc2)CC1"
reported_measurement = 96

[[record]]
smiles_record = "COc1c(Nc2ccc(N3CCN(C)CC3)cn2)ncnc1Oc1ccc2[nH]c(C)cc2c1F"
reported_measurement = -1

[[record]]
smiles_record = "Cc1cc2c(F)c(Oc3ncnc(Nc4ccc(N5CCN(C)CC5)cc4)c3F)ccc2[nH]1"
reported_measurement = 96

